# Tested on: E13 (patient-derived glioblastoma stem cells of classical subtype)
# assay: phenotypic distance (Euclidean, principal components) from DMSO controls (arbitrary units); higher = stronger morphological change
# experimentalContext: 37 nM; exposure time: 72 h
propertyName: phenotypic distance
Could you keep your reply to the number by itself?

Using known records, supply phenotypic distance for C/C(=C\c1csc(C)n1)[C@@H]1C[C@@H]2O[C@]2(C)CCC[C@H](C)[C@H](O)[C@@H](C)C(=O)C(C)(C)[C@@H](O)CC(=O)N1 [Ixabepilone]
4.56

---

# Test system: E13;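 note: cell Painting imaging in 384-well plates, CellProfiler features reduced to at least 20 principal components, Euclidean distance versus same-plate DMSO vehicle wells (0.1% v/v), median over six images per well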
# assay: phenotypic distance (Euclidean, principal components) from DMSO controls (arbitrary units); higher = stronger morphological change
# experimentalContext: 111.1 nM; exposure time: 72 h
Where a name gives a salt, the structure may show the parent alone.
Attribute: phenotypic distance

Take a look at these entries with their results.
compound	propertyName	recordedResult
Cc1cc(C)c(CN2CCc3c(Cl)cc(-c4c(C)noc4C)c(Cl)c3C2=O)c(=O)[nH]1	phenotypic distance	0.599
O=C(/C=C\n1cnc(-c2cc(C(F)(F)F)cc(C(F)(F)F)c2)n1)NNc1cnccn1 [Selinexor]	phenotypic distance	3.35
CN(C)CCN(Cc1ccc(Cl)cc1)c1ccccn1 [Chloropyramine hydrochloride]	phenotypic distance	0.455
COc1cccc2c1C(=O)c1c(O)c3c(c(O)c1C2=O)C[C@@](O)(C(=O)CO)C[C@@H]3O[C@H]1C[C@H](N)[C@H](O)[C@H](C)O1 [Doxorubicin hydrochloride]	phenotypic distance	6.04
O=C(CCBr)N1CCN(C(=O)CCBr)CC1	phenotypic distance	0.407
CC(C)C[C@H](NC(=O)[C@H](Cc1ccccc1)C[C@@H](O)[C@H](Cc1ccccc1)NC(=O)OC(C)(C)C)C(=O)N[C@@H](Cc1ccccc1)C(N)=O	phenotypic distance	0.891
C[C@@H]1C[C@@H]([C@H](O)CC2CC(=O)NC(=O)C2)C(=O)[C@@H](C)C1 [Cycloheximide]	phenotypic distance	1.77

Continue with the next compound.
Using known records, supply phenotypic distance for "Nc1ncnc2c1c(-c1ccc(Oc3ccccc3)cc1)cn2C1CCCC1"
0.653

Values from the supplement of paper PMC13207355
